Source: PubChem BioAssay (NCATS)

# PROTOCOL_DETAILS: Confirmatory qHTS to identify inhibitors of SARS-CoV-2 cell entry (AID 1645844); also: nearly all actives have a fitted effect of over 45% in size
# REPORTED_CONDITIONS: SARS-CoV-2 pseudotyped particle cell entry, luciferase; series mostly up to 57.2 µM
# Source text: Assay Provider: Wei Zheng, Ph.D. National Center for Advancing Translational Sciences, National Institute of Health, Rockville, MD. SARS-CoV-2 spike protein, within the viral envelope, mediates viral attachment and infection of host cells. The SARS-CoV-2 spike protein specifically binds to the host receptor ACE2 (Angiotensin-converting enzyme 2). […] 11. […] Read luminescence signal (Viewlux plate reader, PerkinElmer). […]
Inconclusive results are not listed. Calls of active or inactive are those of the source. Calls follow the shape of the full dose curve.
Return exactly one item of T (active), F (inactive)

# example entries with known answers
[
  {
    "MOLECULE": "O=C(Nc1ncc(-c2cc(C(F)F)nn2-c2c(Cl)cccc2Cl)s1)C1CC1",
    "GROUP_LABEL": "T"
  },
  {
    "MOLECULE": "COC(=O)[C@H]1[C@H]2C[C@@H]3c4[nH]c5ccccc5c4CCN3C[C@H]2C[C@@H](OC(=O)c2cc(OC)c(OC)c(OC)c2)[C@@H]1OC",
    "GROUP_LABEL": "F"
  },
  {
    "MOLECULE": "CC(C)c1nn(-c2c(Cl)cccc2Cl)c2nc(Cc3ccc(OCCO)cc3)[nH]c(=O)c12",
    "GROUP_LABEL": "T"
  },
  {
    "MOLECULE": "COc1ccc(/C=C/C(=O)Nc2ccccc2C(=O)O)cc1OC",
    "GROUP_LABEL": "T"
  },
  {
    "MOLECULE": "C[C@@]1(C(=O)Nc2ccc(F)nc2)CCCN1c1nc(Nc2cc(C3CC3)[nH]n2)c2cccn2n1",
    "GROUP_LABEL": "T"
  },
  {
    "MOLECULE": "CC(=O)[C@H]1CC[C@H]2[C@@H]3CCC4=CC(=O)CC[C@]4(C)[C@H]3CC[C@]12C",
    "GROUP_LABEL": "T"
  },
  {
    "MOLECULE": "COc1c(OCCCN2CCOCC2)ccc2c3n(c(=NC(=O)c4cnc(N)nc4)nc12)CCN3",
    "GROUP_LABEL": "T"
  },
  {
    "MOLECULE": "CC(C)(C)c1nc2c3cc[nH]c(=O)c3c3cc(F)ccc3c2[nH]1",
    "GROUP_LABEL": "T"
  }
]

Query: Hey, what did the test say about COCCOC(=O)C1=C(C)NC2=C(C(=O)CC(c3ccccc3OC)C2)C1c1cccc(O)c1 (configuration not stated) ?
Response: F

Query: Name the outcome recorded for N#CC(c1ccc(Cl)cc1)c1c(Cl)cc(-n2ncc(=O)[nH]c2=O)cc1Cl (configuration not stated) in the assay.
Response: T

Query: Check the results log: what was the call for Nc1nc(=O)n([C@H]2C[C@H](O)[C@@H](CO)O2)cc1F ?
Response: T

Query: Per the records of this test, what outcome belongs to CC[C@H](C)C(=O)O[C@H]1CCC=C2C=C[C@H](C)[C@H](CC[C@@H]3C[C@@H](O)CC(=O)O3)[C@H]21 ?
Response: F

Query: Just curious, what result did CN1C(=O)C[C@H](C(=O)N[C@@H](Cc2cnc[nH]2)C(=O)N2CCC[C@@H]2C(N)=O)NC1=O get here?
Response: T

Query: Tell me the recorded outcome of this test for CC[C@@](C)(Nc1ccnc(-c2c[nH]c3ncccc23)n1)C(=O)NCC(F)(F)F .
Response: F

Query: Hey, what did the test say about CC(=O)O[C@H]1C(=O)[C@@]2(C)C([C@H](OC(=O)c3ccccc3)[C@]3(O)C[C@H](OC(=O)[C@H](O)[C@@H](NC(=O)c4ccccc4)c4ccccc4)C(C)=C1C3(C)C)[C@]1(OC(C)=O)CO[C@@H]1C[C@@H]2O (some centres not stated) ?
Response: T

* * *

# PROTOCOL_DETAILS: qHTS for Inhibitors of the Functional Ribonucleoprotein Complex (vRNP) of Lassa (LASV) Arenavirus: LASV Primary Screen - GLuc reporter signal (AID 1347082); also: nearly all actives have a fitted effect of over 60% in size
# REPORTED_CONDITIONS: LASV minigenome vRNP, Gaussia luciferase reporter; series mostly up to 57.5 µM
Inconclusive results are not listed. Activity calls are given as the source filed them. Calls follow the shape of the full dose curve; tested in HEK293 reporter line.
Output constraint: value belongs to active, inactive

Past entries and their recorded results:
[
  {
    "COMPOUND": "CC(=O)N1CCN(c2ccc(OCc3nn(C)c(C)c3-c3cccc4c(CCCOc5cc(C)c(Cl)c(C)c5)c(C(=O)O)n(Cc5cccnc5)c34)cc2)CC1",
    "GROUP_LABEL": "inactive"
  },
  {
    "COMPOUND": "O=C(O)C(=O)Nc1cccc(C2=NN=N[N]2)c1",
    "GROUP_LABEL": "inactive"
  },
  {
    "COMPOUND": "CO[C@H]1[C@@H](OC)CC(OC2OC(CO)C(O)C(O)C2O)/C(=C\\C#N)[C@@H]1O (stereo partly specified)",
    "GROUP_LABEL": "inactive"
  },
  {
    "COMPOUND": "Cc1cc(OCCCS(C)(=O)=O)cc(C)c1-c1cccc(COc2ccc3c(c2)OC[C@H]3CC(=O)O)c1",
    "GROUP_LABEL": "inactive"
  }
]

Query: Just curious, what result did O=c1c(-c2ccc(O)cc2)coc2cc(O[C@@H]3O[C@H](CO)[C@H](O)[C@H](O)[C@H]3O)ccc12 get here?
Response: inactive

Query: # outcome recorded in this test, key = Oc1ccc(C2CCN(c3ccnc4ccccc34)CC2)cc1O
Response: active

Query: I'd appreciate the recorded outcome for Cc1coc2c1C(=O)C(=O)c1c-2ccc2c(C)cccc12 from this test.
Response: inactive

* * *

# Tested on: Zika virus NS2B-NS3 protease (linked construct)
# PROTOCOL_DETAILS: Primary screen NINDS Rhodamine qHTS for Zika virus inhibitors (AID 1347160); also: % is scaled to controls: 0 for no effect and ±100 for the full control effect; nearly all actives have a fitted effect of over 55% in size
# REPORTED_CONDITIONS: purified NS2B-NS3 protease, Rhodamine110 substrate fluorescence; series mostly up to 57.1 µM
# Description: Avindra Nath, Ph.D., National Institute of Neurological Disorders and Stroke (NINDS), Bethesda, MD Radhakrishnan Padmanabhan, Ph.D., Georgetown University (GU), Washington D.C. Zika Virus causes congenital defects, including microcephaly and is associated with Guillain-Barre syndrome, eningoencephalitis and myelitis in infected adult. […]
Inconclusive results are not listed. Calls of active or inactive are those of the source. Calls come from the whole dose curve; as a rule, active = well fitted inhibition curve with a large enough effect; inconclusive = small, poorly fitted or top-dose-only effect; inactive = no such curve, though single readings can be large or run the other way.
Parameter call: string, one of active, inactive

[
  {
    "COMPOUND": "CCC1CC2CN3CCc4c([nH]c5ccccc45)C(C(=O)OC)(C2)C13 (centres undefined)",
    "GROUP_LABEL": "inactive"
  }
]

Query: What did this assay record as the result for C[C@]12CC[C@H]3[C@@H](CCC4=C/C(=N/OCC(=O)O)CC[C@@]43C)[C@@H]1CC[C@@H]2O ?
Response: inactive

Query: Which outcome was entered for the compound Cc1cccc(NC(=O)NC2N=C(c3ccccc3)c3ccccc3N(CC(=O)c3ccccc3C)C2=O)c1 (centres undefined) in this test?
Response: inactive

* * *

# ASSAY_SYSTEM: Nucleoprotein (Lymphocytic choriomeningitis virus (strain Armstrong)) (UniProt P09992)
# Sequence (P09992 whole entry, looked up): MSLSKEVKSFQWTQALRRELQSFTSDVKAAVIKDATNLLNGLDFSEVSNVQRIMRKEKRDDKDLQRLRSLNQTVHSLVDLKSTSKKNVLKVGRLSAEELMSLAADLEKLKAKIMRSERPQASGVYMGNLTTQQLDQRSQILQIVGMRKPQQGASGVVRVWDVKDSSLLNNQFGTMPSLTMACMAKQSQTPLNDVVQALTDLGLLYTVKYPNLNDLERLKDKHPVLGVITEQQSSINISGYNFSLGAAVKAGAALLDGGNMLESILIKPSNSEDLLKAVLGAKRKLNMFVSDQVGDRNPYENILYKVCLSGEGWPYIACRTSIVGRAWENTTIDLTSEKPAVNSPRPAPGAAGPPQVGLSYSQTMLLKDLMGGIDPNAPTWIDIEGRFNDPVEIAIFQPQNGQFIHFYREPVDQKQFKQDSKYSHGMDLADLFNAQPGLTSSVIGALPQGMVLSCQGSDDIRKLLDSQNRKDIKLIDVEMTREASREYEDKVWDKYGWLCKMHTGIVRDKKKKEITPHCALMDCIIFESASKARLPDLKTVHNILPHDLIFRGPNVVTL
# PROTOCOL_DETAILS: qHTS for Inhibitors of the Functional Ribonucleoprotein Complex (vRNP) of Lymphocytic Choriomeningitis Arenaviruses (LCMV): LCMV Primary Screen - GLuc reporter signal (AID 1347086); also: nearly all actives have a fitted effect of over 70% in size; also: potency is read from the fitted curve at half-maximal effect
# REPORTED_CONDITIONS: LCMV minigenome vRNP cell assay, Gaussia luciferase reporter; series mostly up to 57.5 µM
Results filed as inconclusive are left out. Activity calls are given as the source filed them. Calls come from the whole dose curve.
MEASURED_PARAMETER: Potency

// below: answered molecules
[
  {
    "MOLECULE": "COC(=O)/C=C/c1ccccc1",
    "Potency": "inactive"
  },
  {
    "MOLECULE": "CCOc1cc2ncc(C#N)c(Nc3ccc(OCc4ccccn4)c(Cl)c3)c2cc1NC(=O)C=CCN(C)C",
    "Potency": "1530 nM (active)"
  },
  {
    "MOLECULE": "Clc1cccc(-n2nnnc2NCc2ccccc2Oc2ccccn2)c1Cl",
    "Potency": "inactive"
  },
  {
    "MOLECULE": "CC(C)CCCCCCCCCCCCC(=O)NCC(=O)NC1C(O)C(O)C(Nc2ncnc3nc[nH]c23)OC1C(O)CO (stereo not given)",
    "Potency": "inactive"
  }
]

Switching to the query record.
Query: Please report the measured Potency for CC1(C)C=Cc2c(c3ccccc3[nH]c2=O)O1
Response: inactive

* * *

A collection of molecules and their measured max response
# Tested on: CRL-7250
# PROTOCOL_DETAILS: Cytotoxic Profiling of Annotated Libraries Using Quantitative High-Throughput Screening (AID 1296008); also: % is scaled to controls: 0 for no effect and ±100 for the full control effect; nearly all actives have a fitted effect of over 60% in size
# REPORTED_CONDITIONS: Five cell lines viability, CellTiter-Glo ATP luminescence, 48-72 h; stronger effect = lower value
Inconclusive results are not listed. Where a SMILES comes first, the peptide text is derived from it. [ ]: non-standard residue; d: D form. Ala(indol-2-yl) = N[C@@H](Cc1cc2ccccc2[nH]1)C(=O)O; Aib = CC(C)(N)C(=O)O
Express it in %; write the number only.

Answered cases to consult:
[
  {
    "MOLECULE": "CC1CCCC(=O)CCC/C=C/c2cc(O)cc(O)c2C(=O)O1 (configuration not stated)",
    "max response [%]": 3.12
  },
  {
    "MOLECULE": "CC(C)(NC(=O)[C@@H](N)Cc1ccc(O)cc1)C(=O)N[C@@H](Cc1cc2ccccc2[nH]1)C(=O)N[C@@H](Cc1ccccc1)C(=O)O (H-Y[Aib][Ala(indol-2-yl)]F-OH)",
    "max response [%]": -5.29
  },
  {
    "MOLECULE": "C=C1C2(C)CC3C(C)(O)C4=CC(=O)OC(C)(C)C4=CCC3(C)C13C(=O)OC(C)C3(O)C2=O (configuration not stated)",
    "max response [%]": -8.29
  }
]

Query: Supply max response value. Item: c1cncc(OC[C@@H]2CCN2)c1
Response: 0.617

Query: // Input: Clc1ccc([C@]23CNC[C@H]2C3)cc1Cl . Output its max response only.
Response: -9.42

Query: Report max response for CCC1NC(=O)C2C(Cl)C(Cl)CN2C(=O)C(CC)NC(=O)CC(c2ccccc2)NC(=O)C(CO)NC1=O (configuration not stated)
Response: 2.35

Query: Let me know recorded max response for CC(C)(C)[C@]1(O)C[C@@H]2OC(=O)C[C@@]23C(=O)O[C@@H]2OC(=O)[C@@H](O)[C@]213 , thanks.
Response: 1.12
